Experiment: Inhibition of almonds beta-glucosidase by spectrometry
Parameters: species or system Prunus dulcis
MEASURE_NAME: IC50 (µM)

CCCCCCCCN[C@@H]1C=C(CO)[C@H](O)[C@H](O)[C@H]1O :: 8.1
CCCCCCCCN[C@@H]1C=C(CO)[C@@H](O)[C@H](O)[C@H]1O :: 47

* * *

Biological target: Alpha-galactosidase (Coffea arabica, UniProt Q42656)
Sequence (Q42656 whole entry): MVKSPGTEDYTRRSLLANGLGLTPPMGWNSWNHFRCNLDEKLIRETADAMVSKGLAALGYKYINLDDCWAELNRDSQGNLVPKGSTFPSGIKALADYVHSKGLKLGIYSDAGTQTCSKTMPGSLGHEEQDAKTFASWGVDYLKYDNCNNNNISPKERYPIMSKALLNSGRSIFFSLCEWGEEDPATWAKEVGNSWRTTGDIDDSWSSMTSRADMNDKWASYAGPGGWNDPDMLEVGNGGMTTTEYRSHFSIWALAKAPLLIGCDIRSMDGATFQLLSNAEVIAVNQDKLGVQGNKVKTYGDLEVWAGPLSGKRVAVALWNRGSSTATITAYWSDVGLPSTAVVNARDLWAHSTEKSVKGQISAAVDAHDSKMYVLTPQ
Experiment: Inhibition of green coffee beans alpha-galactosidase by spectrometry
MEASURE_NAME: IC50 (µM)

CCCCCCCCN[C@@H]1C=C(CO)[C@H](O)[C@H](O)[C@H]1O :: 4.5

* * *

Biological target: UniProt Q58D55
Sequence (Q58D55 whole entry): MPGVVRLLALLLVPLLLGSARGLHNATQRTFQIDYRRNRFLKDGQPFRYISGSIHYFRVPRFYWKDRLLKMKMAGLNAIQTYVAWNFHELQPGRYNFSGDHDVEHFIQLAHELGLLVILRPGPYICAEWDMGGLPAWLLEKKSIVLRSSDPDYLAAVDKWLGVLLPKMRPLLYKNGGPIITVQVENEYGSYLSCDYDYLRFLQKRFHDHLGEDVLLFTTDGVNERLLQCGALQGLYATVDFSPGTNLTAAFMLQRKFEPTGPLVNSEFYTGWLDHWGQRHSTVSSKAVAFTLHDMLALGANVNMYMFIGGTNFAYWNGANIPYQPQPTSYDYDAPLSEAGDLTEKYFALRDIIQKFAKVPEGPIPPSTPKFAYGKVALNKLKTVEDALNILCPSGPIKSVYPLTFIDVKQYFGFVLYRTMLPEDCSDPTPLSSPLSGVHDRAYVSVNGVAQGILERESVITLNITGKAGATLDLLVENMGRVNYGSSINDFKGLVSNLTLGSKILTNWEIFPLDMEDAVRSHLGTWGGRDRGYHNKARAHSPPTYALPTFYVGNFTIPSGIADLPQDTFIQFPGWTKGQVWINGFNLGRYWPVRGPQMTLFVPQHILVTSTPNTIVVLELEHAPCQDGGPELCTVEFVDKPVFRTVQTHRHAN
Assay: Inhibition of bovine liver beta-galactosidase by spectrometry
MEASURE_NAME: IC50 (µM)

CCCCCCCCN[C@@H]1C=C(CO)[C@H](O)[C@H](O)[C@H]1O :: 4.5
